tested on: Escherichia coli; assay: Inhibition of Escherichia coli DNA dependent RNA polymerase at 100 uM after 2 hrs by SYBR Green-based spectrophotometric analysis
Measured attribute: inhibition (%)
# value in %; strip the unit string

O=C(Nc1ccc(-n2cncn2)nc1)c1ccc(C(F)(F)F)cc1 5.9

# input compound: "NS(=O)(=O)c1ccc(C(=O)Nc2ccc(N3CCOCC3)nc2)cc1" ; wanted: its inhibition
0

# input compound: "NS(=O)(=O)c1ccc(NC(=O)c2ccc(-n3cncn3)nc2)cc1" ; wanted: its inhibition
0

* * *

experiment: Inhibition of DNA dependent RNA polymerase
Measured attribute: pIC50
Keep it numeric: pIC50 is minus log10 of the concentration in mol/L.

# input compound: "CCCC/C(C)=C/C=C(\C)C(=O)c1c(O)cc(CCC/C=C/NC(=O)OC)oc1=O" ; wanted: its pIC50
6.47
